Reference for the values: ChEMBL document CHEMBL4425165

- protocol_details: Solubility of the compound at pH 7.4
- Format: physicochemical
- experimental_context: buffer
Below: a set of entries, each annotated with reported log10(solubility).
Kindly note that the scale is log10 and the underlying solubility is in µg/mL.

Example entries and their recorded answers appear below.
molecule: Cc1cc(-c2cnn3c(NC[C@H]4C[C@H](O)C4)cc(NC4CCCC4)nc23)ccc1C(=O)NC1CC1
endpoint: log10(solubility)
result_value: 0.73
--
molecule: Cc1cc(-c2cnn3c(NCC4CCOCC4)nc(NC4CCCC4)nc23)ccc1C(=O)NC1CC1
endpoint: log10(solubility)
result_value: 0.56
--
molecule: Cc1cc(-c2cnn3c(NCC4CCOCC4)cc(N[C@H]4CCCC[C@H]4O)nc23)ccc1C(=O)NC1CC1
endpoint: log10(solubility)
result_value: 1.11
--
molecule: Cc1cc(-c2cnn3c(NC[C@H]4CC[C@H](O)CC4)cc(Oc4cccnc4)nc23)ccc1C(=O)NC1CC1
endpoint: log10(solubility)
result_value: 0.32
--
molecule: Cc1cc(-c2cnn3c(NC[C@H]4C[C@](C)(O)C4)cc(NC4CCCC4)nc23)ccc1C(=O)NC1CC1
endpoint: log10(solubility)
result_value: 0.56

Inquiry: So what does the record say about log10(solubility) for "CC[C@H](CO)Nc1cc(NCC2CCOCC2)n2ncc(-c3ccc(C(=O)NC4CC4)c(C)c3)c2n1" ?
Reply text: 1.43

Inquiry: Thanks! And "Cc1cc(-c2cnn3c(NC[C@H]4CC[C@@H](O)CC4)cc(Oc4cccnc4)nc23)ccc1C(=O)NC1CC1" ?
Reply text: 0.32

Inquiry: Thanks! And "Cc1cc(-c2cnn3c(NCCN4CCOCC4)cc(Oc4cccc(F)c4)nc23)ccc1C(=O)NC1CC1" ?
Reply text: 0.18

Inquiry: Thanks! And "Cc1cc(-c2cnn3c(NCC4CCOCC4)nc(Oc4ccccc4)nc23)ccc1C(=O)NC1CC1" ?
Reply text: 0.04

Inquiry: Thanks! And "Cc1cc(-c2cnn3c(NCCN4CCOCC4)cc(Oc4ccccc4)nc23)ccc1C(=O)NC1CC1" ?
Reply text: 0.20

---

- protocol_details: Solubility of the compound at pH 2
- Type: physicochemical
- experimental_context: buffer
Quick rule: solubility of at least 500 µg/mL means Satisfied, below that means Not satisfied.

Examples from the recorded data:
compound: CC[C@H](CO)Nc1cc(NCC2CCOCC2)n2ncc(-c3ccc(C(=O)NC4CC4)c(C)c3)c2n1
category: Satisfied
--
compound: Cc1cc(-c2cnn3c(NCC4CCOCC4)cc(N[C@H]4CCC[C@H]4O)nc23)ccc1C(=O)NC1CC1
category: Not satisfied
--
compound: Cc1cc(-c2cnn3c(NC[C@H]4C[C@](C)(O)C4)cc(Oc4cccnc4)nc23)ccc1C(=O)NC1CC1
category: Satisfied
--
compound: Cc1cc(-c2cnn3c(NC[C@H]4CC[C@@H](O)CC4)cc(Oc4cccnc4)nc23)ccc1C(=O)NC1CC1
category: Not satisfied

Inquiry: Determine whether measured solubility meets or exceeds 500 µg/mL for Cc1cc(-c2cnn3c(NCC4CC4)cc(NC4CCCC[C@H]4O)nc23)ccc1C(=O)NC1CC1 (single isomer, unassigned)
Reply text: Not satisfied

Inquiry: Thanks! And "Cc1cc(-c2cnn3c(NC[C@H]4CC[C@H](O)CC4)cc(Oc4cccnc4)nc23)ccc1C(=O)NC1CC1" ?
Reply text: Not satisfied

Inquiry: Thanks! And "Cc1cc(-c2cnn3c(NCC4CCOCC4)cc(N[C@@H]4CCCC[C@H]4O)nc23)ccc1C(=O)NC1CC1" ?
Reply text: Not satisfied

Inquiry: Thanks! And "Cc1cc(-c2cnn3c(NCC4CCOCC4)cc(N[C@@H](C4CC4)C(C)(C)O)nc23)ccc1C(=O)NC1CC1" ?
Reply text: Not satisfied

Inquiry: Thanks! And "Cc1cc(-c2cnn3c(NC[C@H]4C[C@H](O)C4)cc(NC4CCCC4)nc23)ccc1C(=O)NC1CC1" ?
Reply text: Satisfied
